Parameter: O2 permeability (Barrer)

[1] *c1cc(C(=O)OCCC(F)(F)C(F)(F)C(F)(F)C(F)(F)C(F)(F)C(F)(F)F)cc(N2C(=O)c3ccc(Oc4ccc5c(c4)C(=O)N(*)C5=O)cc3C2=O)c1 (repeat unit)
[2] *c1cc(C)c(C)c(N2C(=O)c3ccc(Oc4cc(C)c(Oc5ccc6c(c5)C(=O)N(*)C6=O)c(C)c4C)cc3C2=O)c1C (repeat unit)
For 1 and 2 , which recorded O2 permeability is lower? Respond using the label that marks the chosen record.
1
(1: 2.61 Barrer, 2: 18 Barrer)

[A] *Oc1c(C)cc(*)c(C(=O)c2ccc(C)cc2)c1C (repeat unit)
[B] *c1c(C)cc(C)c(N2C(=O)c3ccc(Oc4ccc(Oc5ccc6c(c5)C(=O)N(*)C6=O)cc4)cc3C2=O)c1C (repeat unit)
[C] *C(=C(*)c1ccc2c(c1)C(C)(C)c1ccccc1-2)c1ccccc1 (repeat unit)
Rank descending by O2 permeability. Give the labels in the order requested.
C, A, B
(C: 4800 Barrer, A: 7.36 Barrer, B: 4.42 Barrer)

====

Parameter: CO2 permeability (Barrer)

// below: answered compounds
• *c1cc2c(cc1O)C1(CC2(C)C)CC(C)(C)c2cc(N3C(=O)C4C(C3=O)C3(Br)C(Br)=C(Br)C4(Br)C4C(=O)N(*)C(=O)C43)c(O)cc21 (repeat unit) = 138
• *c1c(C)cc(-c2cc(C)c(N3C(=O)c4ccc(Oc5cc(C(C)(C)C)c(Oc6ccc7c(c6)C(=O)N(*)C7=O)cc5C(C)(C)C)cc4C3=O)c(C)c2)cc1C (repeat unit) = 95
• *c1ccc(Sc2ccc(Sc3ccc(N4C(=O)c5ccc(C(c6ccc7c(c6)C(=O)N(*)C7=O)(C(F)(F)F)C(F)(F)F)cc5C4=O)cc3)cc2)cc1 (repeat unit) = 8.92

[P] *Oc1ccc(C(=O)c2ccc(-c3ccc(C(=O)c4ccc(Oc5ccc(C(C)(C)c6ccc(*)cc6)cc5)cc4)cc3)cc2)cc1 (repeat unit)
[Q] *Oc1cc2c(cc1O*)C1(CC2(C)C)CC(C)(C)c2cc3c(cc21)Oc1c(C#N)c(*)c(*)c(C#N)c1O3 (repeat unit)
Quick check, higher CO2 permeability between P and Q ? Respond using the label that marks the chosen record.
Q

====

Parameter: CH4 permeability (Barrer)

• *c1ccc2c(-c3c(OC(C)=O)ccc4cc(N5C(=O)c6ccc(C(c7ccc8c(c7)C(=O)N(*)C8=O)(C(F)(F)F)C(F)(F)F)cc6C5=O)ccc34)c(OC(C)=O)ccc2c1 (repeat unit) = 0.12

[1] *Oc1ccc(-c2c(-c3ccc(Br)cc3)c(-c3ccc(Br)cc3)c(-c3ccc4c(c3)Oc3c(C#N)c(*)c(*)c(C#N)c3O4)c(-c3ccc(Br)cc3)c2-c2ccc(Br)cc2)cc1O* (repeat unit)
[2] *c1ccc(-c2ccc(Oc3ccc4c(c3)C(C)(c3ccc(Oc5ccc(-c6ccc(-n7c(=O)c8cc9c(=O)n(*)c(=O)c9cc8c7=O)cc6)cc5C(F)(F)F)cc3)CC4(C)C)c(C(F)(F)F)c2)cc1 (repeat unit)
[3] *Oc1c(C)cc(C(C)(C)c2cc(C)c(OC(*)=O)c(C)c2)cc1C (repeat unit)
[4] *C(=C(*)c1ccc2c(c1)C(C)(C)C(C)(C)C2(C)C)c1ccccc1 (repeat unit)
[5] *OC(=O)c1ccc(C(=O)Oc2ccc(C(C)(C)c3ccc(O*)c(C)c3)cc2C)cc1 (repeat unit)
Rank descending by CH4 permeability. Give the labels in the order requested.
4, 1, 2, 3, 5
(4: 24700 Barrer, 1: 102 Barrer, 2: 1.52 Barrer, 3: 0.89 Barrer, 5: 0.17 Barrer)

// provenance: a polymer gas permeability compilation
